READOUT_TYPE: O2 permeability (Barrer)

1 = *c1ccc(Oc2ccc(N3C(=O)c4ccc(Oc5ccc(C(c6ccc(Oc7ccc8c(c7)C(=O)N(*)C8=O)cc6)(C(F)(F)F)C(F)(F)F)cc5)cc4C3=O)cc2)cc1 (repeat unit)
2 = *c1ccc(Cc2ccc(N3C(=O)c4ccc(-c5ccc6c(c5)C(=O)N(*)C6=O)cc4C3=O)cc2)cc1 (repeat unit)
3 = *OC(=O)Oc1ccc(C(=C(Cl)Cl)c2ccc(*)cc2)cc1 (repeat unit)
## Input Order the items by recorded O2 permeability; the first position goes to the largest value. Dear reader, please state the labels in the requested order.
## Output 3, 1, 2

* * *

READOUT_TYPE: CO2 permeability (Barrer)

A = *C(=C(*)c1ccc(S(=O)(=O)O)cc1)c1ccc(C(C)(C)C)cc1 (repeat unit)
B = *c1c(C)cc2c(c1C)C1c3ccccc3C2c2cc(C)c(N3C(=O)c4ccc(C(c5ccc6c(c5)C(=O)N(*)C6=O)(C(F)(F)F)C(F)(F)F)cc4C3=O)c(C)c21 (repeat unit)
## Input Could you point out whether the larger CO2 permeability belongs to A or to B ? Respond using the label that marks the chosen record.
## Output B
(B: 1730 Barrer, A: 340 Barrer)

a = *c1c(C)cc(C)c(N2C(=O)c3ccc(-c4ccc5c(c4)C(=O)N(*)C5=O)cc3C2=O)c1C (repeat unit)
b = *Oc1ccc(C(c2ccc(Oc3ccc(S(=O)(=O)c4ccc(*)cc4)cc3)cc2)(C(F)(F)F)C(F)(F)F)cc1 (repeat unit)
c = *Oc1c(Br)cc(C(c2cc(Br)c(OC(=O)c3cc(C(*)=O)cc(C(C)(C)C)c3)c(Br)c2)(C(F)(F)F)C(F)(F)F)cc1Br (repeat unit)
## Input Sort (3 molecules) by CO2 permeability: min first. # answer = labels listed in requested order
## Output b, c, a

I = *Oc1ccc(C(c2ccc(OC(=O)c3ccc(C(*)=O)cc3)cc2)(C(F)(F)F)C(F)(F)F)cc1 (repeat unit)
II = *OC(=O)Oc1ccc(C(=C(Cl)Cl)c2ccc(*)cc2)cc1 (repeat unit)
## Input Could you tell me which of these two has the smaller CO2 permeability figure? First: I Second: II Choose, then provide that item's label.
## Output II

a = *Oc1ccc(C(=O)c2cccc(-c3cccc(C(=O)c4ccc(Oc5ccc(C(c6ccc(*)cc6)(C(F)(F)F)C(F)(F)F)cc5)cc4)c3)c2)cc1 (repeat unit)
b = *Oc1ccc(S(=O)(=O)c2ccc(Oc3c(C)cc(C(C)(C)c4cc(C)c(*)c(C)c4)cc3C)cc2)cc1 (repeat unit)
## Input Choose between a and b : whose measured CO2 permeability value is numerically larger? Lab note: record the label of whichever item you select.
## Output b

I = *C(=C(*)c1ccc([Si](C(C)C)(C(C)C)C(C)C)cc1)c1ccccc1 (repeat unit)
II = *c1c(C)c(C)c(N2C(=O)c3ccc(Oc4cc(C)c(Oc5ccc6c(c5)C(=O)N(*)C6=O)c(C)c4C)cc3C2=O)c(C)c1C (repeat unit)
## Input Given the listed records, identify the one among I and II with higher CO2 permeability. Give the label under which the chosen entry appears.
## Output I

A = *c1c(C)cc(C)c(N2C(=O)c3ccc(C(c4ccc5c(c4)C(=O)N(*)C5=O)(C(F)(F)F)C(F)(F)F)cc3C2=O)c1C (repeat unit)
B = *NC(=O)c1ccc(C(c2ccc(C(=O)O)c(C(=O)Nc3cc(Oc4ccc(*)c(N)c4)ccc3N)c2)(C(F)(F)F)C(F)(F)F)cc1C(=O)O (repeat unit)
## Input // compare measured CO2 permeability, left A , right B , return larger Please identify the chosen entry by its label.
## Output A
(A: 422 Barrer, B: 3.69 Barrer)

a = *c1c(C)c(C)c(N2C(=O)c3cc4c(cc3C2=O)C2(CC(C)(C)c3cc5c(cc32)C(=O)N(*)C5=O)CC4(C)C)c(C)c1C (repeat unit)
b = *Oc1cc2c(cc1O*)C1(CC2(C)C)CC(C)(C)c2cc3c(cc21)Oc1c(c(C(F)(F)F)c(*)c(*)c1S(=O)(=O)c1ccccc1)O3 (repeat unit)
## Input Of the two listed items, which has the higher CO2 permeability? First: a Second: b Indicate your choice by writing its label.
## Output a

a = *c1ccc(Cc2ccc(-n3c(=O)c4cc5c(=O)n(*)c(=O)c5cc4c3=O)cc2)cc1 (repeat unit)
b = *C(=C(*)c1ccc2c(c1)Cc1ccccc1-2)c1ccccc1 (repeat unit)
c = *c1ccc(-c2ccc(Oc3ccc4c(c3)C(C)(c3ccc(Oc5ccc(-c6ccc(-n7c(=O)c8cc9c(=O)n(*)c(=O)c9cc8c7=O)cc6)cc5C(F)(F)F)cc3)CC4(C)C)c(C(F)(F)F)c2)cc1 (repeat unit)
## Input Order the records so the highest CO2 permeability appears first and the lowest last. Write the labels in rank order as requested.
## Output b, c, a
(b: 8500 Barrer, c: 44.7 Barrer, a: 2.5 Barrer)
